- Experiment Description: in vitro
- Study Conditions: both, SD, rat, plasma (EDTA)
Bridge positions count the residues as written; N and C are the ends. Square brackets hold non-standard residues; d marks the D form. Peptide text beside a SMILES is read from it. Trp(7-Me) = Cc1cccc2c(C[C@H](N)C(=O)O)c[nH]c12; 2Nal = N[C@@H](Cc1ccc2ccccc2c1)C(=O)O; AEF = NCCOc1ccc(C[C@H](N)C(=O)O)cc1; Cit = NC(=O)NCCC[C@H](N)C(=O)O; Pen = CC(C)(S)[C@H](N)C(=O)O; αMeK = C[C@](N)(CCCCN)C(=O)O
Consider the following molecules and their measured half-life at 20 μM readings.

# Molecule, half-life at 20 μM
measured = [
    ("CC(=O)NCCCC[C@H](NC(=O)[C@](C)(CCCCN)NC(=O)[C@H](Cc1ccc2ccccc2c1)NC(=O)[C@H](Cc1ccc(OCCN)cc1)NC(=O)[C@H]1NC(=O)[C@H](CCCNC(N)=O)NC(=O)[C@H](Cc2c[nH]c3c(C)cccc23)NC(=O)[C@H]([C@@H](C)O)NC(=O)[C@H](CC(N)=O)NC(=O)[C@@H](NC(C)=O)C(C)(C)SSC1(C)C)C(=O)N[C@@H](CC(N)=O)C(=O)N[C@H](CO)C(N)=O [compound 261] (Ac-[Pen]NT[Trp(7-Me)][Cit][Pen][AEF][2Nal][αMeK]K(Ac)N[dS]-NH2; disulfide 1-6)", "> 24 h"),
    ("CC(=O)NCCCC[C@@H]1NC(=O)[C@H](Cc2c[nH]c3c(C)cccc23)NC(=O)[C@H]([C@@H](C)O)NC(=O)[C@H](CC(N)=O)NC(=O)[C@@H](NC(C)=O)C(C)(C)SSC(C)(C)[C@@H](C(=O)N[C@@H](Cc2ccc(OCCN)cc2)C(=O)N[C@@H](Cc2ccc3ccccc3c2)C(=O)N[C@@](C)(CCCCN)C(=O)N[C@@H](CCCCNC(C)=O)C(=O)N[C@@H](CC(N)=O)C(=O)N[C@H](CC(N)=O)Cc2ccccc2)NC1=O [compound 247]", "> 24 h"),
]
